// reported IC50 per item
biological target: full length active recombinant SYK enzyme (Homo sapiens, UniProt P43405); construct: full length active recombinant SYK enzyme (Millipore, Calif.); test: Inhibition of Syk tyrosine phosphorylation activity (LANCE TR-FRET kinase assay); conditions: activity in the Syk assays, class symbols

Previously resolved entries follow.
NC(=O)c1ncc(N[C@@H]2CCOC[C@@H]2N)nc1Nc1cccc(-c2ncccn2)c1    1 to 10 nM
CC(C)C[C@@H](Nc1cnc(C(N)=O)c(Nc2cccc(-c3ccncc3)c2)n1)C(N)=O    1 to 10 nM
Cc1cc(Nc2nc(N[C@H](CC(C)C)C(N)=O)cnc2C(N)=O)ccn1    1 to 10 nM
Cc1cccc(Nc2nc(N[C@@H]3CCCC[C@@H]3N)cnc2C(N)=O)c1 [Example 275]    < 1 nM
NC(=O)c1ncc(N[C@@H]2CCCC[C@@H]2N)nc1Nc1ccnc(C2CC2)c1    < 1 nM

Hi! What's the reported IC50 for COc1ncc(Nc2nc(N[C@@H]3CCCC(F)(F)[C@@H]3N)cnc2C(N)=O)cc1C on full length active recombinant SYK enzyme (Homo sapiens, UniProt P43405)?
10 to 100 nM

Next compound up: CC(C)C[C@@H](Nc1cnc(C(N)=O)c(Nc2ccnc(C3CC3)c2)n1)C(N)=O
< 1 nM

---

Quick reference: IC50 of the listed items.
target: full length active recombinant SYK enzyme (Homo sapiens, UniProt P43405); construct: full length active recombinant SYK enzyme (Millipore, Calif.); experiment: Inhibition of Syk tyrosine phosphorylation activity (LANCE TR-FRET kinase assay); settings: activity in the Syk assays, class symbols

NC(=O)c1ncc(N[C@@H](C(N)=O)C2CC2)nc1Nc1ccc2cnccc2c1 [Example 190]    0.001 to 0.01 µM

GET /values?readout=IC50&item= Cc1ccc(Nc2nc(N[C@H](CC3CC3)C(N)=O)cnc2C(N)=O)cc1C [Example 172]
0.001 to 0.01 µM

Same read-out for CC[C@@H](Nc1cnc(C(N)=O)c(Nc2ccc(C)cc2)n1)C(N)=O [Example 152] ?
0.01 to 0.1 µM
